# assay_protocol: compounds binding Alexa647 anti-His antibody – biochemical, small-molecule microarray, 635 nm fluorescence, artefact control for SMM control protein annotation, primary screen (AID 1128);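 also: score merges feature fluorescence with signal-to-noise for each printed compound spot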
# assay_setup: higher = more signal
# key: entry, value: composite z-score
Lab note: record just the number, no unit beside it.

Field: example entries. Status: answers known.
Read the entry `O=C1C[C@@](C(=O)O)(c2ccc([N+](=O)[O-])cc2)[C@@H](c2ccc(CO)cc2I)N1C1CCCCC1` and write its reported composite z-score.
0.806

Dear colleague, please send me the reported composite z-score for `C=C(CCCC)C(=O)CC[C@@H](OC(=O)c1ccccc1-c1ccccc1C(=O)O)c1ccc(CO)o1` when you can.
0.39

Let me know recorded composite z-score for `[N-]=[N+]=NCc1ccccc1[C@@H]1OC(c2ccc(OCCCO)cc2)=N[C@]1(Cc1ccccc1N=[N+]=[N-])C(N)=O` , thanks.
1.81

Tell us which composite z-score value is on record for `C=CC[C@@]1(C(=O)NCc2ccccc2)N=C(c2ccc(OCCCO)cc2)O[C@@H]1c1ccccc1CN=[N+]=[N-]`
1.8

Others:
Return composite z-score (reported value) for this compound: `C[N+](C)(C)CCCC[C@@H]1NC(=O)[C@H]2C[C@@H](C(=O)O)[C@@H](c3cccc(OCCO)c3)N2C1=O`
3.61

Give the value of composite z-score reported for the following: `O=C1O[C@@H](c2ccccc2)[C@@H](c2ccccc2)N2[C@@H](c3ccccc3OCCO)[C@]3(C(=O)Nc4ccc(C#CC5(O)CCCCCC5)cc43)[C@@H](C(=O)NC[C@H](O)c3ccccc3)[C@H]12`
1.82

Give composite z-score for the following compound: C=CCC(OC(C)=O)[C@@H]1[C@@H](N(Cc2ccc(-c3ccccc3)cc2)C(=O)c2ccc(C)cc2)c2cc(OCCCO)ccc2N1C(=O)c1ccc2ccccc2n1 (some centres not stated)
-0.512

###

# experimental_system: Luciferin 4-monooxygenase (Photinus pyralis) (UniProt P08659)
# Sequence (P08659 whole entry, looked up): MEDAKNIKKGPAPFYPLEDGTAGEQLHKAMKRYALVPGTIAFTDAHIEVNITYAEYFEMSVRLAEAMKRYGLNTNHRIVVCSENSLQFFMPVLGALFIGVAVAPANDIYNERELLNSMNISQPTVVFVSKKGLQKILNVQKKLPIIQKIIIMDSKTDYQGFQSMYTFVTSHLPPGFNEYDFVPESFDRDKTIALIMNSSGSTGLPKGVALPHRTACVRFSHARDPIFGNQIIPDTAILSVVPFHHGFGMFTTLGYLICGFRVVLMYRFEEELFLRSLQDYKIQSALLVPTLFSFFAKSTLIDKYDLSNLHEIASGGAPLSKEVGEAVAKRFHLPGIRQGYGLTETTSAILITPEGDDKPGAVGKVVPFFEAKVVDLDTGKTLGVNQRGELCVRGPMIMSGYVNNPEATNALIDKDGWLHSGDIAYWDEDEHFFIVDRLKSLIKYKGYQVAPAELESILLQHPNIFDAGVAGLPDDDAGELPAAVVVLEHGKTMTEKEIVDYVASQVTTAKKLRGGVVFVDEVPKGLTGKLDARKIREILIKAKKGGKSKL
# assay_protocol: inhibition of purified Photinus pyralis luciferase – biochemical, luminescence, purified enzyme, 2006 set, primary screen (AID 1141);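 also: cell-free assay with purified firefly luciferase at 100 ng per well in PBS; test concentration not given here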
# assay_setup: purified firefly luciferase, SteadyGlo luminescence, 30 min; higher = more signal, called active from +8 up or from −8 down
observable: z-score
Number only, please.

Please review the following examples before continuing.
State its z-score: O=C1C2C=CC(C(O)c3ccccn3)N(Nc3ccccc3F)C2C(=O)N1c1ccccc1 (centres undefined)
-0.323

Indicate its recorded z-score; the molecule in question is `O=C1[C@H]2C=C(Br)[C@H](C[C@@H]2OCCOCCO)[C@@]12CO2`
0.582

New cases:
Return the recorded z-score value; entry: `CC(=O)NCCCC[C@@H]1NC(=O)[C@@H]2C[C@H](C(=O)NCc3ccc(F)cc3)[C@H](c3ccc(O)cc3)N2C1=O`
-0.333

Please give the documented z-score of `COCCOC(=O)N1C(=O)[C@@]2(c3ccccc31)[C@H](C(=O)N1CCCCCCC1)[C@H]1C(=O)O[C@H](c3ccccc3)[C@H](c3ccccc3)N1[C@@H]2c1ccccc1OCCO`
0.131

###

# assay_protocol: JC-1 mitochondrial signal, unstimulated adipocytes – cell-based, JC-1 fluorescence, 3T3-L1 adipocytes, 24 h, 100 nL compound, profiling panel (AID 1168); also: test concentration not given here
# assay_setup: JC-1 mitochondrial fluorescence, higher = more signal, called active from +8 up or from −8 down
Outcome label depends on z-score relative to -0.4: at/above gives Met, below gives Not met.

# example entries with known answers
In plain terms: is recorded z-score at least -0.4 for `CC(=O)NCCCC[C@@H]1NC(=O)[C@@H]2C[C@H](C(=O)NCCCCCC[N+](C)(C)C)[C@H](c3cccc(OCCO)c3)N2C1=O` ?
Met

# check: z-score of CC1CC/C=C\[C@H]2OC34C=CCN(CCN5CCOCC5)C(=O)[C@H]3N(CCCCCO)C(=O)[C@@H]4C2C(=O)O1 (some centres undefined) is greater than or equal to -0.4
Met

For this compound, is measured z-score -0.4 or higher? `CN(C)CCCC[C@@H]1NC(=O)[C@H]2C[C@@H](C(=O)NCCCCCNC(=O)CS)[C@@H](c3ccc(O)cc3)N2C1=O`
Met

More entries:
Textbook exercise: given the entry C=CCC(OC(C)=O)[C@@H]1[C@@H](N(Cc2ccc(-c3cccc(C(F)(F)F)c3)o2)C(=O)Cc2ccc(OC)cc2)c2cc(OCCCO)ccc2N1C(=O)Cc1ccc(OC)cc1 (some centres undefined) , state whether its z-score is greater than or equal to -0.4.
Not met

Threshold query (z-score >= -0.4) on O=C(NCC(O)CO)[C@]1(CCS(=O)(=O)c2ccccc2)N=C(c2ccc(OCCCO)cc2)O[C@@H]1c1ccccc1 (some centres undefined)
Not met

Is z-score at least -0.4? Consider `COc1ccc(C#Cc2ccc3c(c2)[C@]2(C(=O)N3)[C@H](C(=O)N3CCc4cc(OC)c(OC)cc4C3)[C@H]3C(=O)O[C@H](c4ccccc4)[C@H](c4ccccc4)N3[C@@H]2c2ccc(OCCO)cc2)cc1`
Met

Given the entry `O=C(NCc1ccccc1)[C@@H]1c2ccccc2C(=O)N(C2CCCCC2)[C@H]1c1ccc(CO)cc1` , answer whether its z-score meets or surpasses -0.4.
Met

Say whether `CC(=O)NCCCC[C@@H]1NC(=O)[C@@H]2C[C@H](C(=O)NCc3ccc(F)cc3)[C@H](c3ccc(O)cc3)N2C1=O` shows z-score of -0.4 or more.
Met

Identify whether the reported z-score of the following compound is -0.4 or greater: `O=C(NCCN1CCOCC1)[C@@H]1c2ccccc2C(=O)N(Cc2cc(F)cc(C(F)(F)F)c2)[C@H]1c1ccc(CO)cc1`
Met

# bool: z-score of `CCCC[C@H]1OB(O)C[C@H]2C1=C(COc1ccccc1)C[C@H]1C(=O)N(Cc3ccccc3)C(=O)[C@H]12` >= -0.4
Met

Does the compound O=C1OCCC/C=C\[C@H]2OC34C=CCN(Cn5nnc6ccccc65)C(=O)[C@H]3N(CCCO)C(=O)[C@@H]4C12 (some centres undefined) have recorded z-score that is -0.4 or more?
Met

For this compound, is measured z-score -0.4 or higher? `O=C(NCC(F)(F)F)[C@@H]1c2ccccc2C(=O)N(Cc2ccccc2)[C@H]1c1ccc(CO)cc1`
Met

Is the recorded value of z-score equal to or greater than -0.4 for this compound? Cc1ccc(C(C)CC(O)C2C=CC3C(=O)NC(=O)C3N2Nc2ccccn2)o1 (centres undefined)
Met

###

# experimental_system: Torsin-1A-interacting protein 1 (Homo sapiens)
# assay_protocol: compound microarray binding of lysate hLAP1 – cell lysate, small-molecule microarray, COS7 lysate, 635/667 nm fluorescence, primary screen (AID 1116)
# assay_setup: 635 nm fluorescence, higher = more signal
Here, each record is paired with measured composite z-score data.

Consider the compound `[N-]=[N+]=Nc1ccccc1[C@@H]1OC(c2ccc(OCCCO)cc2)=N[C@]1(CCS(=O)(=O)c1ccccc1)C(=O)O` and give its recorded composite z-score.
0.677

New cases:
Fill in reported composite z-score for this entry: `C=C[C@H](OC)[C@@H](OC(=O)Nc1ccc(SC)cc1)c1ccc(OCCO)cc1`
1.35

Annotate the compound `CCCCCCC#C[Si](O[C@H](c1ccccc1)c1cn([C@H](C)c2ccccc2)nn1)(C(C)C)C(C)C` with its measured composite z-score.
-0.0802

Give a short answer stating reported composite z-score for `O=C(NCCN1CCOCC1)[C@@H]1c2ccccc2C(=O)N(Cc2cc(F)cc(C(F)(F)F)c2)[C@H]1c1ccc(CO)cc1` .
0.812

###

# experimental_system: Calmodulin-1 (Homo sapiens)
# assay_protocol: small molecules binding calmodulin-1 with EGTA – biochemical, small-molecule microarray, Cy5-labelled CALM1, profiling panel (AID 1111);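 also: labelled calmodulin applied in Tris saline Tween buffer holding calcium plus EGTA and DTT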
# assay_setup: Cy5-CALM1 binding fluorescence, higher = more signal
Assign class by composite z-score: not lower than 0.3 means y; lower than 0.3 means n.

State whether the measured composite z-score reaches 0.3, counting equality as reaching it, for `COCCCNC(=O)[C@@]1(Cc2ccccc2I)c2ccccc2C(=O)N(Cc2ccccc2)[C@H]1c1ccc(CO)cc1`
n

Others:
Does composite z-score meet or surpass 0.3 for `CCOC(=O)C1=CC[C@@H](c2cccc(Cl)c2)N(S(=O)(=O)c2ccc(C)cc2)[C@H]1c1ccc(C#N)cc1` ?
y

composite z-score >= 0.3 for CCN(CC)c1ccc(N2CC=CC34O[C@@H]5/C=C\CCC(C)OC(=O)C5[C@H]3C(=O)N(CCCCCCO)[C@@H]4C2=O)cc1 (some centres undefined) ?
n

State whether the measured composite z-score reaches 0.3, counting equality as reaching it, for `CCCC[C@H]1OB(O)C[C@H]2C1=C(COc1ccccc1)C[C@H]1C(=O)N(Cc3ccccc3)C(=O)[C@H]12`
y

In plain terms: is recorded composite z-score at least 0.3 for `Cc1ccc(N2C(=O)c3ccccc3[C@@H](C(=O)NC(C)C)[C@@H]2c2ccc(CO)cc2)nc1` ?
n

Say whether `CC(=O)NCCCC[C@@H]1NC(=O)[C@@H]2C[C@H](C(=O)NCc3ccc(F)cc3)[C@H](c3ccc(O)cc3)N2C1=O` shows composite z-score of 0.3 or more.
n

Does `CN(C)CCCN1C(=O)[C@@]2(c3ccc([N+](=O)[O-])cc3)CC(=O)N(C3CCCCC3)[C@@H]2c2ccc(CO)cc21` have a reported composite z-score of at least 0.3?
n
